Cited source for all entries: paper PMC3397428

Target: PfDHODH (Plasmodium falciparum, UniProt Q08210)
Sequence (Q08210 24-569): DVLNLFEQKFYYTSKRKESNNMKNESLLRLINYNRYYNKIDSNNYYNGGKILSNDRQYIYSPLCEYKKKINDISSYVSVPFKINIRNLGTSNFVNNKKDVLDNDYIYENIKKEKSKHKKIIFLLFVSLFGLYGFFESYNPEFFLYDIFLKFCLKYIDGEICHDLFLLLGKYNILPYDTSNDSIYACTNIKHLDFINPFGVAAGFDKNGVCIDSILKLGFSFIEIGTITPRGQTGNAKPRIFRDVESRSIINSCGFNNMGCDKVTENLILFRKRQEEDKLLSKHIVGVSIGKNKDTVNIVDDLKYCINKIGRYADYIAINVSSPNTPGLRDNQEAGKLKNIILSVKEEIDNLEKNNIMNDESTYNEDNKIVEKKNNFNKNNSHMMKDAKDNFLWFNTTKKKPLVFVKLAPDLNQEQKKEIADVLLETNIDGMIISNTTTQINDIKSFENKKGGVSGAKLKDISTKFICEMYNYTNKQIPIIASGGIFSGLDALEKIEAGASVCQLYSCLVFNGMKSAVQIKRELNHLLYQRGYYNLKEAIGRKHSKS
pIC50: −log10 of the molar value.
Quick list: pIC50 per entry.

compound=Nc1nc2c(c(Nc3cccc(F)c3)n1)-c1ccccc1C2 value="≤ 3.70"

Lab note: record pIC50 of Nc1nc2c(c(Nc3ccc(Cl)cc3)n1)-c1ccccc1C2 tested on PfDHODH (Plasmodium falciparum, UniProt Q08210).
≤ 3.70

Lab note: record pIC50 of COc1cccc(Nc2nc(N)nc3c2-c2ccccc2C3)c1 tested on PfDHODH (Plasmodium falciparum, UniProt Q08210).
≤ 3.70

Lab note: record pIC50 of Nc1nc2c(c(Nc3cccc(Br)c3)n1)-c1ccccc1C2 tested on PfDHODH (Plasmodium falciparum, UniProt Q08210).
≤ 3.70

Lab note: record pIC50 of Nc1nc2c(c(Nc3ccc(Cl)cc3F)n1)-c1ccccc1C2 tested on PfDHODH (Plasmodium falciparum, UniProt Q08210).
≤ 3.70

Lab note: record pIC50 of Nc1nc2c(c(Nc3ccccc3)n1)-c1ccccc1C2 tested on PfDHODH (Plasmodium falciparum, UniProt Q08210).
≤ 3.70
